# Test system: SF-295 CNS
# Experimental details: NCI-60 one-dose screen, 48 h (100 = growth as untreated, 0 = no growth, -100 = all killed)
# Details: 10 µM
This is part of a sample that, as a whole, favours compounds with a hit. Of some 83,000 tested, about 20% had one in any assay.
Consider the following compounds; for each one, report its growth.
Just the number in %, nothing appended.

SF-295 CNS assay, compound O=C1C=C(Nc2ccc([N+](=O)[O-])cc2)c2ccccc2C1=O , recorded growth = 53.1

SF-295 CNS assay, compound COc1cccc(O)c1O , recorded growth = 104

SF-295 CNS assay, compound CCCCNC(=O)C(=O)NCCCC , recorded growth = 102

SF-295 CNS assay, compound COc1cccc(Sc2ccc([N+](=O)[O-])c3no[n+]([O-])c23)c1 , recorded growth = 95.9

SF-295 CNS assay, compound COc1cc(/C=C/C(=O)c2ccccc2)cc(OC)c1OC , recorded growth = -24.7

SF-295 CNS assay, compound CN(C)c1ccc(S(=O)(=O)O)cc1 , recorded growth = 107

SF-295 CNS assay, compound CCCCC/C=N/Nc1nc(C)cc(=O)[nH]1 , recorded growth = 88.8

SF-295 CNS assay, compound O=c1[nH]n(-c2ccccc2)c(=O)cc1Cl , recorded growth = 114

SF-295 CNS assay, compound COc1cc2nc3cc([N+](=O)[O-])ccc3c(Cl)c2cc1OC , recorded growth = 103

SF-295 CNS assay, compound COC1=CC(=O)c2nc(Cl)ccc2C1=O , recorded growth = 115

SF-295 CNS assay, compound CCc1ccc(/C(C#N)=C/C=C/c2ccccc2)cc1 , recorded growth = 21.3

SF-295 CNS assay, compound CCOC(=O)CSc1c([N+](=O)[O-])ncn1C , recorded growth = 102

SF-295 CNS assay, compound COc1ccccc1NC(=O)c1cc2cc(Br)ccc2cc1O , recorded growth = 11.3

SF-295 CNS assay, compound CC1CCCC(CC(N)=O)CC1 (configuration not stated) , recorded growth = 89.4

SF-295 CNS assay, compound O=C(O)c1cc([N+](=O)[O-])ccc1Cl , recorded growth = 101

SF-295 CNS assay, compound COc1cc(CCN=Cc2ccccc2O)c([N+](=O)[O-])cc1OC , recorded growth = 87.4

SF-295 CNS assay, compound COc1cccc(/C=N/NC(=S)NC2CC3CCC2C3)c1O (configuration not stated) , recorded growth = 15.9

SF-295 CNS assay, compound CN(C)c1ccc2oc(=O)c3ccccc3c2c1 , recorded growth = 102

SF-295 CNS assay, compound COc1ccc(NC(=O)CCl)cc1 , recorded growth = 101

SF-295 CNS assay, compound COC(=O)Nc1nc2ccc(C(=O)c3ccc(F)cc3)cc2[nH]1 , recorded growth = -3.22

SF-295 CNS assay, compound COc1ccc(C2(O)CCCCC2)cc1 , recorded growth = 105

SF-295 CNS assay, compound NC(=O)N/N=C\c1ccco1 , recorded growth = 132

SF-295 CNS assay, compound O=C(O)/C=C/C(=O)NCc1ccccc1 , recorded growth = 98.1

SF-295 CNS assay, compound COc1cc(C(=O)NC(=S)Nc2ccc3ccccc3c2)cc(OC)c1OC , recorded growth = 44.7

SF-295 CNS assay, compound CCOc1ccccc1/C=N/Nc1nc2ccccc2o1 , recorded growth = 108

SF-295 CNS assay, compound OCC(O)C(O)C(O)C(O)/C=N/O (configuration not stated) , recorded growth = 105

SF-295 CNS assay, compound Nc1ccc(NC(=O)c2cccc(N)c2)cc1 , recorded growth = 92.5
